Each record here notes measured Cmax.
Test: Cmax in Balb/c mouse assessed as 6-((5-Fluoropyridin-2-yl)amino)-4-((2-(methylsulfonyl)phenyl)amino)nicotinamide level at 10 mg/kg, po after 1 hr
Assay type: ADME, organism-based
Design: dose 10 mg/kg, route oral
Details: in vivo
Number only, in µM; omit the unit.

[[record]]
structure_smiles_string = "CNC(=O)c1cnc(Nc2ccc(F)cn2)cc1Nc1ccccc1S(C)(=O)=O"
unit_info = "µM"
observed = 0.021


# context switch: different compound, same Cmax
-- ask Consider the compound [2H]C([2H])([2H])NC(=O)c1cnc(Nc2ccc(F)cn2)cc1Nc1ccccc1S(C)(=O)=O . State its measured Cmax.
-- reply 0.0049
